System: human liver microsomes
protocol-text: in vitro
condition-details: human, microsomes
reported-endpoint: HLM CLint (µL/min/mg)
Enter your answer as a number in µL/min/mg; do not include the unit.

compound	HLM CLint [µL/min/mg]
CC(C)(C)NCc1cc(Nc2ccnc3cc(Cl)ccc23)c2c(c1O)CCCC2	14.4
CC(C)(C)NCc1cc(C(C)(C)C)cc(-c2cnc(C(F)(F)F)c(F)c2)c1O	9.50
O=C(NCCN1CCCC1)c1cc(-c2ccc(CN3CCOCC3)cc2)nc2ccc(F)cc12	11.1

For the compound CN(C)C[c-]1cccc1CNc1ccnc2cc(Cl)ccc12.[Fe+2].c1cc[cH-]c1 (stereo not drawn) , what HLM CLint is on record?
29.2

###

protocol-text: Plasma protein binding via ultracentrifugation (UC)
Assay type: in vitro ADME, human
condition-details: human, neat pooled plasma, pH 7.4; ultracentrifugation, neat plasma; read-out: Fraction unbound, human plasma
Experimental: Pooled human plasma (n = 3–4 donors) was obtained by centrifugation of blood (collected by the Australian Red Cross Blood Service, Melbourne, Australia or the Volunteer Blood Donor Registry, Clinical Translation Centre, Walter & Eliza Hall Institute of Medical Research, Parkville, Australia), or sourcing pooled plasma directly from commercial sources (Innovative Research Inc, MI) and stored frozen at − 80 °C. […]
The threshold is 0.2. Values of fraction unbound at […] beneath it are tagged true (1); values meeting or exceeding it are tagged false (0).

Known results for molecules:
molecule	answer-label
Nc1ccc(S(=O)(=O)c2ccc(N)cc2)cc1	false (0)
CC(C)(N)CNC(=O)C[C@H]1CC[C@]2(CC1)OO[C@]1(O2)C2CC3CC(C2)CC1C3	true (1)
CCCCN(CCCC)CCC(O)c1cc2c(Cl)cc(Cl)cc2c2cc(C(F)(F)F)ccc12 (centres unmarked)	true (1)
CC[C@H]1OC(=O)[C@H](C)[C@@H](O[C@H]2C[C@@](C)(OC)[C@@H](O)[C@H](C)O2)[C@H](C)[C@@H](O[C@@H]2O[C@H](C)C[C@H](N(C)C)[C@H]2O)[C@](C)(O)C[C@@H](C)CN(C)[C@H](C)[C@@H](O)[C@]1(C)O	false (0)
O=C1C(O)=C([C@H]2CC[C@H](c3ccc(Cl)cc3)CC2)C(=O)c2ccccc21	true (1)
C[C@H]1[C@H](N2CCS(=O)(=O)CC2)O[C@@H]2O[C@@]3(C)CC[C@H]4[C@H](C)CC[C@@H]1[C@@]24OO3	true (1)

Does the reported fraction unbound at […] of the following molecule sit strictly below 0.2? CC(C)NC(=N)NC(=N)Nc1ccc(Cl)c(Cl)c1
true (1)

Determine whether this molecule shows fraction unbound at […] lower than 0.2 (ties excluded): COc1ccc2nc3cc(Cl)ccc3c(Nc3cc(CN4CCCC4)c(O)c(CN4CCCC4)c3)c2n1
false (0)

###

Tested on: human plasma
protocol-text: Plasma protein binding via rapid equilibrium dialysis (RED), 10% plasma
Type: in vitro ADME
condition-details: RED, 10% plasma corrected for dilution, presaturation of device and 24 h dialysis
Marks after values point to notes of the source that are not given here.
reported-endpoint: Fraction unbound, human plasma

Worked set:
compound	target-or-system	Fraction unbound, human plasma
COc1cc2[nH]c(C)c(-c3ccc(Oc4ccc(OC(F)(F)F)cc4)cc3)c(=O)c2cc1Cl	human plasma	0.00010 ± 0.000010^c
CN(C)C[c-]1cccc1CNc1ccnc2cc(Cl)ccc12.[Fe+2].c1cc[cH-]c1 (centres unmarked)	human plasma	0.041 ± 0.0010^c
COc1cc(N[C@H](C)CCCN)c2nccc(C)c2c1Oc1ccc(Cl)c(Cl)c1 [NPC1161B]	human plasma	0.00074 ± 0.00016^c
CS(=O)(=O)O.FC1CCN(CCOc2ccc(C3CCC4(CC3)OOC3(OO4)C4CC5CC(C4)CC3C5)cc2)CC1 (centres unmarked)	human plasma	< 0.0001^c

Kindly consider the entry below.
Which Fraction unbound, human plasma value is on record for CC(C)(C)NCc1cc(Nc2ccnc3cc(Cl)ccc23)c2c(c1O)CCCC2 ?
0.018 ± 0.0010^c

###

protocol-text: Plasma protein binding via ultracentrifugation (UC)
Format: in vitro ADME, human
condition-details: human, pH 7.4; ultracentrifugation, neat plasma; read-out: Fraction unbound, human plasma
reported-endpoint: fraction unbound at […]
When you answer, write just the number.

I am curious: what fraction unbound at […] value has been reported for COc1cc(NC(C)CCCN)c2ncccc2c1 (stereo not shown) ?
0.26

###

protocol-text: Bidirectional permeability across Caco-2 cell monolayers
condition-details: human, Caco-2, pH 7.4
Field 'label' (enum: yes / no). Set to yes when Papp B→A is strictly under 20 ×10⁻⁶ cm/s; else no.

In plain terms, does C[C@H]1[C@H](N2CCS(=O)(=O)CC2)O[C@@H]2O[C@@]3(C)CC[C@H]4[C@H](C)CC[C@@H]1[C@@]24OO3 [Artemisone] come in under 20 ×10⁻⁶ cm/s for Papp B→A?
no

###

protocol-text: Solubility limited absorbable dose (SLAD) calculation with predicted human jejunal Peff
condition-details: Peff × tres/R; minimum 1
Entries annotated with measured An (absorption number)

Answered examples (2):
compound	reported-endpoint	value
Cc1cc(Nc2ccc(S(F)(F)(F)(F)F)cc2)n2nc(C(C)(F)F)nc2n1	An (absorption number)	5.7
Cc1cc(Nc2ccc(C(F)(F)F)nc2)n2nc(C(C)(F)F)nc2n1	An (absorption number)	3.9

Bench note: what An (absorption number) did O=C(NCCN1CCCC1)c1cc(-c2ccc(CN3CCOCC3)cc2)nc2ccc(F)cc12 show?
4.0

Reported An (absorption number), compound CC1(C)c2nc(-c3ccc(F)cc3)c(Nc3ccc(F)cc3)n2CCN1C(=O)CN : ____
3.5

Please report the recorded An (absorption number) for c1cc([C@H]2CC[C@]3(CC2)OO[C@]2(O3)C3CC4CC(C3)CC2C4)ccc1OCCN1CCOCC1 .
13

Would you kindly share the measured An (absorption number) for CC[C@H]1OC(=O)[C@H](C)[C@@H](O[C@H]2C[C@@](C)(OC)[C@@H](O)[C@H](C)O2)[C@H](C)[C@@H](O[C@@H]2O[C@H](C)C[C@H](N(C)C)[C@H]2O)[C@](C)(O)C[C@@H](C)CN(C)[C@H](C)[C@@H](O)[C@]1(C)O ?
1.0

GET /values?readout=An (absorption number)&item= C[C@H]1[C@H](OC(=O)CCC(=O)O)O[C@@H]2O[C@@]3(C)CC[C@H]4[C@H](C)CC[C@@H]1[C@@]24OO3 [Artesunate]
1.0

###

Collected microsomal CLint at 1 µM values appear next to each entry.
protocol-text: In vitro metabolism (metabolic stability) in human liver microsomes
condition-details: human, liver microsomes, pH 7.4, HLM CLint, human liver microsomes; average of n = 2 replicates; < 7 means < 15% loss over 60 min

Check out these entries, answers already filled in.
Clc1ccc2c(N3CCN(CCCN4CCN(c5ccnc6cc(Cl)ccc56)CC4)CC3)ccnc2c1 20.1 µL/min/mg
CC[C@H]1OC(=O)[C@H](C)[C@@H](O[C@H]2C[C@@](C)(OC)[C@@H](O)[C@H](C)O2)[C@H](C)[C@@H](O[C@@H]2O[C@H](C)C[C@H](N(C)C)[C@H]2O)[C@](C)(O)C[C@@H](C)CN(C)[C@H](C)[C@@H](O)[C@]1(C)O < 7 µL/min/mg
O=C1C(O)=C([C@H]2CC[C@H](c3ccc(Cl)cc3)CC2)C(=O)c2ccccc21 < 7 µL/min/mg

Kindly review the next compound as well.
Which microsomal CLint at 1 µM value is on record for COc1ncnc(NS(=O)(=O)c2ccc(N)cc2)c1OC ?
< 7 µL/min/mg

###

Recorded fraction unbound at […], 1000 ng/mL values for a group of compounds are listed next.
protocol-text: Binding in DMEM with 10% FCS via ultracentrifugation
Type: in vitro ADME, calf
condition-details: bovine, DMEM with 10% FCS, pH 7.4
Answer with a number only.

Record excerpt, results attached:
compound	reported-endpoint	value
C[C@H]1c2cccc(O)c2C(=O)C2=C(O)[C@]3(O)C(=O)C(C(N)=O)=C(O)[C@@H](N(C)C)[C@@H]3[C@@H](O)[C@@H]21	fraction unbound at […], 1000 ng/mL	0.44
CC1(C)N=C(N)N=C(N)N1c1ccc(Cl)cc1	fraction unbound at […], 1000 ng/mL	0.94
CS(=O)(=O)c1ccc(-c2cnc(N)c(-c3ccc(C(F)(F)F)nc3)c2)cc1	fraction unbound at […], 1000 ng/mL	0.653
Clc1ccc2c(N3CCN(CCCN4CCN(c5ccnc6cc(Cl)ccc56)CC4)CC3)ccnc2c1	fraction unbound at […], 1000 ng/mL	0.092
CC1(C)c2nc(-c3ccc(F)cc3)c(Nc3ccc(F)cc3)n2CCN1C(=O)CN	fraction unbound at […], 1000 ng/mL	0.477

Would you kindly share the measured fraction unbound at […], 1000 ng/mL for Cc1cc(Nc2ccc(S(F)(F)(F)(F)F)cc2)n2nc(C(C)(F)F)nc2n1 ?
0.366

So what does the record say about fraction unbound at […], 1000 ng/mL for COc1ncnc(NS(=O)(=O)c2ccc(N)cc2)c1OC ?
0.86

Values were extracted from paper PMC6941357.
